Data provenance is paper PMC10663500.

ASSAY_SYSTEM: T1, mouse programmed cell death protein 1 Fc fusion protein (mPD-1-Fc), mPD-1 C60S (aa 25-167) (Mus musculus, UniProt Q02242, stabilised)
T1 construct: not cleaved; source: Expi293F, purified (Protein A, SEC; dimeric fraction); not shown: Fc (human), C-terminal, kept
EXPERIMENTAL_DETAILS: SPR; Carterra LSA; Fab from the ammonium sulfate precipitate of the culture supernatant immobilised on a NiHC200M chip; hPD-1 (1-1024 nM) or mPD-1-Fc (4-1024 nM) as analyte, fourfold dilution series, no regeneration; HBS-EP pH 7.4, 25 °C; medians over the spots of a construct, KD = koff/kon
CONDITIONS_USED: one partner purified
Catalogue of binders with associated log10 of kon
REPORTED_ENDPOINT: log10 of kon (log10 of the value in M⁻¹ s⁻¹)

>>> value_observed("toripalimab Fab L.S61Y (Fab, V domains shown, as the heavy chain of Sm3; light chain of Sm3 with this change; numbers count from the chain's first residue; source: Brevibacillus, culture supernatant (ammonium sulfate precipitate); not shown: 6xHis, C-terminal, kept; 6xHN, C-terminal, kept) VH: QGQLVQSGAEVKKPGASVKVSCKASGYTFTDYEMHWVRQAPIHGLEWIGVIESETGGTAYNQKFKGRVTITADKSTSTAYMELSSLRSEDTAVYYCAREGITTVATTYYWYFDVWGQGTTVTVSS VL: DVVMTQSPLSLPVTLGQPASISCRSSQSIVHSNGNTYLEWYLQKPGQSPQLLIYKVSNRFYGVPDRFSGSGSGTDFTLKISRVEAEDVGVYYCFQGSHVPLTFGQGTKLEIK")
4.63
>>> value_observed("toripalimab Fab H.T55Y (Fab, V domains shown, heavy chain of Sm3 with this change; numbers count from the chain's first residue; as the light chain of Sm3; source: Brevibacillus, culture supernatant (ammonium sulfate precipitate); not shown: 6xHis, C-terminal, kept; 6xHN, C-terminal, kept) VH: QGQLVQSGAEVKKPGASVKVSCKASGYTFTDYEMHWVRQAPIHGLEWIGVIESEYGGTAYNQKFKGRVTITADKSTSTAYMELSSLRSEDTAVYYCAREGITTVATTYYWYFDVWGQGTTVTVSS VL: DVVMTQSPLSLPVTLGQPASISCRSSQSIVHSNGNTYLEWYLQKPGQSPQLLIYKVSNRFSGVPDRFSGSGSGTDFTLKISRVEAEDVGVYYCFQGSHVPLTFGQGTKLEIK")
4.70
>>> value_observed("toripalimab Fab H.V104Y (Fab, V domains shown, heavy chain of Sm3 with this change; numbers count from the chain's first residue; as the light chain of Sm3; source: Brevibacillus, culture supernatant (ammonium sulfate precipitate); not shown: 6xHis, C-terminal, kept; 6xHN, C-terminal, kept) VH: QGQLVQSGAEVKKPGASVKVSCKASGYTFTDYEMHWVRQAPIHGLEWIGVIESETGGTAYNQKFKGRVTITADKSTSTAYMELSSLRSEDTAVYYCAREGITTYATTYYWYFDVWGQGTTVTVSS VL: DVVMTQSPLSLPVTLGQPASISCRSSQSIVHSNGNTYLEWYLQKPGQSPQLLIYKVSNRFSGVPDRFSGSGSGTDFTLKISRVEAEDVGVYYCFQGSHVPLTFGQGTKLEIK")
4.58
>>> value_observed("toripalimab Fab H.F112Y (Fab, V domains shown, heavy chain of Sm3 with this change; numbers count from the chain's first residue; as the light chain of Sm3; source: Brevibacillus, culture supernatant (ammonium sulfate precipitate); not shown: 6xHis, C-terminal, kept; 6xHN, C-terminal, kept) VH: QGQLVQSGAEVKKPGASVKVSCKASGYTFTDYEMHWVRQAPIHGLEWIGVIESETGGTAYNQKFKGRVTITADKSTSTAYMELSSLRSEDTAVYYCAREGITTVATTYYWYYDVWGQGTTVTVSS VL: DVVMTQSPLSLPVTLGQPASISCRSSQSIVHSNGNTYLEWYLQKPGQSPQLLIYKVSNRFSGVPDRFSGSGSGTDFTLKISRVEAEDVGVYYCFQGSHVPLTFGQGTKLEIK")
4.71
>>> value_observed("toripalimab Fab H.K63Y (Fab, V domains shown, heavy chain of Sm3 with this change; numbers count from the chain's first residue; as the light chain of Sm3; source: Brevibacillus, culture supernatant (ammonium sulfate precipitate); not shown: 6xHis, C-terminal, kept; 6xHN, C-terminal, kept) VH: QGQLVQSGAEVKKPGASVKVSCKASGYTFTDYEMHWVRQAPIHGLEWIGVIESETGGTAYNQYFKGRVTITADKSTSTAYMELSSLRSEDTAVYYCAREGITTVATTYYWYFDVWGQGTTVTVSS VL: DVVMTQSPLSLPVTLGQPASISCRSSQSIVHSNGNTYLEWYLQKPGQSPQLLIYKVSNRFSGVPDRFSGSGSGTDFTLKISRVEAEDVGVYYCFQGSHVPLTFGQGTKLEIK")
4.78
>>> value_observed("toripalimab Fab H.G56A (Fab, V domains shown, heavy chain of Sm3 with this change; numbers count from the chain's first residue; as the light chain of Sm3; source: Brevibacillus, culture supernatant (ammonium sulfate precipitate); not shown: 6xHis, C-terminal, kept; 6xHN, C-terminal, kept) VH: QGQLVQSGAEVKKPGASVKVSCKASGYTFTDYEMHWVRQAPIHGLEWIGVIESETAGTAYNQKFKGRVTITADKSTSTAYMELSSLRSEDTAVYYCAREGITTVATTYYWYFDVWGQGTTVTVSS VL: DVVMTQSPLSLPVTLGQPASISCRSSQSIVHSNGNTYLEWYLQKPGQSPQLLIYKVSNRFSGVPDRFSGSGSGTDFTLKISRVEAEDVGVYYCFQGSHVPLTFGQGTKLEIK")
4.48
>>> value_observed("toripalimab Fab L.L101M (Fab, V domains shown, as the heavy chain of Sm3; light chain of Sm3 with this change; numbers count from the chain's first residue; source: Brevibacillus, culture supernatant (ammonium sulfate precipitate); not shown: 6xHis, C-terminal, kept; 6xHN, C-terminal, kept) VH: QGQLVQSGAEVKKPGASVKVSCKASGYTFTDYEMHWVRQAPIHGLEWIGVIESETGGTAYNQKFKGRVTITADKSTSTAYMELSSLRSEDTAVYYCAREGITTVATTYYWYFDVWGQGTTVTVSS VL: DVVMTQSPLSLPVTLGQPASISCRSSQSIVHSNGNTYLEWYLQKPGQSPQLLIYKVSNRFSGVPDRFSGSGSGTDFTLKISRVEAEDVGVYYCFQGSHVPMTFGQGTKLEIK")
4.44
>>> value_observed("toripalimab Fab L.P100M (Fab, V domains shown, as the heavy chain of Sm3; light chain of Sm3 with this change; numbers count from the chain's first residue; source: Brevibacillus, culture supernatant (ammonium sulfate precipitate); not shown: 6xHis, C-terminal, kept; 6xHN, C-terminal, kept) VH: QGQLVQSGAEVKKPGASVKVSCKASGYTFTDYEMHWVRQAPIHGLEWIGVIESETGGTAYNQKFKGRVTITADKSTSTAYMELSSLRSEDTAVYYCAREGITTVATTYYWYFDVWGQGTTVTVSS VL: DVVMTQSPLSLPVTLGQPASISCRSSQSIVHSNGNTYLEWYLQKPGQSPQLLIYKVSNRFSGVPDRFSGSGSGTDFTLKISRVEAEDVGVYYCFQGSHVMLTFGQGTKLEIK")
4.15
>>> value_observed("toripalimab Fab L.P100R (Fab, V domains shown, as the heavy chain of Sm3; light chain of Sm3 with this change; numbers count from the chain's first residue; source: Brevibacillus, culture supernatant (ammonium sulfate precipitate); not shown: 6xHis, C-terminal, kept; 6xHN, C-terminal, kept) VH: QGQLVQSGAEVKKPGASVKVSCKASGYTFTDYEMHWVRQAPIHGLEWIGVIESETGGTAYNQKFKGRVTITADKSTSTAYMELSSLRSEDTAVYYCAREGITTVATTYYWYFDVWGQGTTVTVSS VL: DVVMTQSPLSLPVTLGQPASISCRSSQSIVHSNGNTYLEWYLQKPGQSPQLLIYKVSNRFSGVPDRFSGSGSGTDFTLKISRVEAEDVGVYYCFQGSHVRLTFGQGTKLEIK")
4.05
>>> value_observed("toripalimab Fab L.F94A (Fab, V domains shown, as the heavy chain of Sm3; light chain of Sm3 with this change; numbers count from the chain's first residue; source: Brevibacillus, culture supernatant (ammonium sulfate precipitate); not shown: 6xHis, C-terminal, kept; 6xHN, C-terminal, kept) VH: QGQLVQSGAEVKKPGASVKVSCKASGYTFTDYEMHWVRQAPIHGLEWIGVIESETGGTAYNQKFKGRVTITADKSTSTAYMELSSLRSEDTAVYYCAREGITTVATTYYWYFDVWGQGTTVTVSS VL: DVVMTQSPLSLPVTLGQPASISCRSSQSIVHSNGNTYLEWYLQKPGQSPQLLIYKVSNRFSGVPDRFSGSGSGTDFTLKISRVEAEDVGVYYCAQGSHVPLTFGQGTKLEIK")
3.74
